Measured values drawn from patent US8163756B2 for this set.

molecular target: B-Raf(V599E) kinase (Homo sapiens, UniProt P15056, V600E); experiment: B-Raf(V599E) kinase assay B1 (construct 1, MEK1 substrate, coupled spectrophotometric); format: biochemical
Sequence (P15056 with tags, fused parts or gaps V600E): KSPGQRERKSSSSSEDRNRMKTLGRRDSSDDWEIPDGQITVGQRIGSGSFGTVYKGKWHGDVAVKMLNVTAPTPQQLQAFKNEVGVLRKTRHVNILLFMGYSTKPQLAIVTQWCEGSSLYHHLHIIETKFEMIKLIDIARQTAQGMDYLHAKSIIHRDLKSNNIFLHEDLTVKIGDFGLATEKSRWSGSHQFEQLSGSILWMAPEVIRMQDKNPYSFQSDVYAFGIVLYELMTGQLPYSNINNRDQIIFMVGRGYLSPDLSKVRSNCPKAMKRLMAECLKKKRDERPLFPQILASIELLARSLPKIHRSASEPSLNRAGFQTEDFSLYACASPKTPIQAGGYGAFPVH
pIC50: −log10 of the molar value. Where a name gives a salt, the structure may show the parent alone.
Parameter: pIC50. Scope: all listed entries.
Measured quantity: pIC50

INSERT INTO assay_data (compound, system_under_test, observed) VALUES
  ('CC(C)(C)c1cc(NC(=O)Nc2cccc(Cl)c2Cl)n(-c2cccc(Br)c2)n1', 'B-Raf(V599E) kinase (Homo sapiens, UniProt P15056, V600E)', 8.42),
  ('CCOC(=O)Cc1cccc(-n2nc(C(C)(C)C)cc2NC(=O)Nc2ccc3c(c2)OCO3)c1', 'B-Raf(V599E) kinase (Homo sapiens, UniProt P15056, V600E)', 7.15),
  ('CC(C)(C)c1cc(NC(=O)Nc2ccc(F)cc2F)n(-c2cc(CC(N)=O)c3ccccc3c2)n1', 'B-Raf(V599E) kinase (Homo sapiens, UniProt P15056, V600E)', 8.23),
  ('CC(C)(C)c1cc(NC(=O)Nc2cccc(Cl)c2Cl)n(-c2ccc3c(c2)CCCN3)n1 [Example 135, hydrochloride]', 'B-Raf(V599E) kinase (Homo sapiens, UniProt P15056, V600E)', 8.35);
